B1: NELF-E aptamer (parent)
chain: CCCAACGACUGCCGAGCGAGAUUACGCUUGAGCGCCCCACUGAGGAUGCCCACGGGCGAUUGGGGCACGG

variants of: B1; assay: HiTS-RAP; conditions: with NELF-E (Drosophila)
Kd under 7 nM gets Condition met, anything at or over 7 nM gets Condition not met.

Is the reported Kd for C9G C17G strictly below 7 nM?
Condition met

Please do the same for C6G G32A as well.
Condition met
